From: patent US7893077B2

SUBJECT OF TEST: PPARγ (Homo sapiens, UniProt P37231)
pIC50: −log10 of the molar value.

COMPOUND | pIC50
O=C(c1nc(NS(=O)(=O)c2ccc(C(F)(F)F)cc2Cl)ccc1Sc1ccc(S(=O)(=O)N2CCOCC2)cc1)C1CC1 [Compound 88] | > 6.00
CCCCNc1nc(NS(=O)(=O)c2ccc(Cl)cc2Cl)ncc1Sc1ccc(S(=O)(=O)N2CCCCC2)cc1 [Compound 14] | > 6.00
CCC(=O)c1nc(NS(=O)(=O)c2ccc(Cl)cc2Cl)ccc1Sc1ccc(S(=O)(=O)N2CCCC2)cc1 [Compound 96] | > 6.00
CCCC(=O)c1nc(NS(=O)(=O)c2ccc(Cl)cc2Cl)ccc1Sc1ccc(S(=O)(=O)N2CCCC2)cc1 [Compound 94] | > 6.00
CC(C)c1cc(NS(=O)(=O)c2ccc(C(F)(F)F)cc2Cl)nnc1Sc1ccc(S(=O)(=O)N2CCOCC2)cc1 [Compound 135] | > 5.00
CCC(CC)S(=O)(=O)c1ccc(Sc2ccc(NS(=O)(=O)c3ccc(C(F)(F)F)cc3Cl)nc2C(=O)C2CC2)cc1 [Compound 117] | > 5.00
CCCCc1cc(NS(=O)(=O)c2ccc(C(F)(F)F)cc2Cl)nnc1Sc1ccc(S(=O)(=O)C2CCCC2)cc1 [Compound 134] | > 6.00

====

Protein target, amino acids: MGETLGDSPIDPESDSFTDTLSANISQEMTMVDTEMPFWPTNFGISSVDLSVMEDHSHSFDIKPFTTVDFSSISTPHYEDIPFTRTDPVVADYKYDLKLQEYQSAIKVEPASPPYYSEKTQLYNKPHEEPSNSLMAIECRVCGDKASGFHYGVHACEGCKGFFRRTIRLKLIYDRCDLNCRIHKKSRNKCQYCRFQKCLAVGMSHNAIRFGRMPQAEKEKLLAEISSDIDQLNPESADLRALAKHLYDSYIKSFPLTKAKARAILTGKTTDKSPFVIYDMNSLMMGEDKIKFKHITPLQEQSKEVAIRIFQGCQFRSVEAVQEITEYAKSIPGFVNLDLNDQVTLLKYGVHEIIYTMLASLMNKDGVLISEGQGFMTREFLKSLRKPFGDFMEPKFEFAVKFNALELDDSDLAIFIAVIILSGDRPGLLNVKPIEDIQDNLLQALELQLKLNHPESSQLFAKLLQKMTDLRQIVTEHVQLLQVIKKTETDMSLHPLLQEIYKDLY
pIC50: −log10 of the molar value.

MOLECULAR STRING | pIC50
Cc1cc(NS(=O)(=O)c2ccc(Cl)cc2Cl)ncc1Sc1ccc(S(=O)(=O)N2CCOCC2)cc1 | > 6.00
COCCNc1nc(NS(=O)(=O)c2ccc(Cl)cc2Cl)ncc1Sc1ccc(S(=O)(=O)N2CCCCC2)cc1 | > 6.00
O=C(c1nc(NS(=O)(=O)c2ccc(Cl)cc2Cl)ccc1Sc1ccc(S(=O)(=O)C2CCCC2)cc1)C1CC1 | > 6.00
CCCNc1nc(NS(=O)(=O)c2ccc(Cl)cc2)ncc1Sc1ccc(S(=O)(=O)N2CCCCC2)cc1 | > 6.00
CCCSc1nc(NS(=O)(=O)c2ccc(Cl)cc2Cl)ncc1Sc1ccc(S(=O)(=O)N2CCCCC2)cc1 | > 6.00
Cc1cc(NS(=O)(=O)c2ccc(C(F)(F)F)cc2Cl)nnc1Sc1ccc(S(=O)(=O)N2CCCCC2)cc1 | > 6.00
O=C(c1nc(NS(=O)(=O)c2ccc(C(F)(F)F)cc2Cl)ccc1Sc1ccc(S(=O)(=O)C2CCOCC2)cc1)C1CC1 | > 6.00
